- System: Saccharomyces cerevisiae
- Protocol description: protein stability index of tFT-peptide fusion (C-terminal peptide) (PSI (0-1 scale)); higher = more stable (slower turnover);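 note: PSI is a weighted mean of sequencing reads over stability bins, variants kept only with over 10 reads, mCherry proximal and sfGFP distal, peptide attached via GGGS linker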
- Condition notes: genetic background: wild type; temperature: 30 C
What protein stability index was measured for each of the following?
Just the number.

So what does the record say about protein stability index for `HLPRRAAILNEF` ?
0.709

So what does the record say about protein stability index for `GGEVGRGRLGVV` ?
0.628

So what does the record say about protein stability index for `SMFLGLCGSIYG` ?
0.699

So what does the record say about protein stability index for `ASALIFTPPSFL` ?
0.686

====

- Test system: Saccharomyces cerevisiae
- Protocol description: protein stability index of tFT-peptide fusion (C-terminal peptide) (PSI (0-1 scale)); higher = more stable (slower turnover)
- Condition notes: genetic background: wild type; temperature: 30 C
What protein stability index was measured for each of the following?
Just the number.

So what does the record say about protein stability index for `VARADLVVTFRI` ?
0.703

So what does the record say about protein stability index for `GGLGGVRAGREG` ?
0.711

So what does the record say about protein stability index for `PSIKRSVKPFSP` ?
0.857

So what does the record say about protein stability index for `PIPHHLRVASPA` ?
0.616

So what does the record say about protein stability index for `PSPLLPPPLPPS` ?
0.678

So what does the record say about protein stability index for `RRSGILGSSFVF` ?
0.75

So what does the record say about protein stability index for `LWVGVGRWLRGR` ?
0.744

So what does the record say about protein stability index for `AGGGKGGGGGEK` ?
0.649

So what does the record say about protein stability index for `TPMDVEVPIAPI` ?
0.753

So what does the record say about protein stability index for `PPPLASLSPASP` ?
0.624

So what does the record say about protein stability index for `GPSIYGFEESFS` ?
0.691

So what does the record say about protein stability index for `ATLIGIPPSLSA` ?
0.664

====

- System: Saccharomyces cerevisiae
- Protocol description: protein stability index of tFT-peptide fusion (C-terminal peptide) (PSI (0-1 scale)); higher = more stable (slower turnover)
- Condition notes: genetic background: wild type; temperature: 30 C
Endpoint label: protein stability index
Just the number.

Checklist item: protein stability index tested on Saccharomyces cerevisiae, entry `FFSPFFFFLFRL` , value?
0.414

Checklist item: protein stability index tested on Saccharomyces cerevisiae, entry `STGVGGPCGRTS` , value?
0.617

Checklist item: protein stability index tested on Saccharomyces cerevisiae, entry `LAGVSSPLPPPP` , value?
0.685

Checklist item: protein stability index tested on Saccharomyces cerevisiae, entry `SPPPPLPPPLPP` , value?
0.525

Checklist item: protein stability index tested on Saccharomyces cerevisiae, entry `WFGAECVCVRGG` , value?
0.762

Checklist item: protein stability index tested on Saccharomyces cerevisiae, entry `GGGVLLWEGGGW` , value?
0.711

Checklist item: protein stability index tested on Saccharomyces cerevisiae, entry `VFKLGWVLCVLL` , value?
0.208

Checklist item: protein stability index tested on Saccharomyces cerevisiae, entry `GGSETHLTVTIY` , value?
0.636

Checklist item: protein stability index tested on Saccharomyces cerevisiae, entry `SFPVPFPRFFPP` , value?
0.714

Checklist item: protein stability index tested on Saccharomyces cerevisiae, entry `EGGVERIHKPSS` , value?
0.654

Checklist item: protein stability index tested on Saccharomyces cerevisiae, entry `WVWGWRRGLRGV` , value?
0.657

Checklist item: protein stability index tested on Saccharomyces cerevisiae, entry `IQNTERIKIQTK` , value?
0.679

Checklist item: protein stability index tested on Saccharomyces cerevisiae, entry `VIFGCVLSQLDT` , value?
0.705

Checklist item: protein stability index tested on Saccharomyces cerevisiae, entry `RVLSAASATRMT` , value?
0.619

Checklist item: protein stability index tested on Saccharomyces cerevisiae, entry `VVLWSTGRVLYG` , value?
0.699

Checklist item: protein stability index tested on Saccharomyces cerevisiae, entry `LTRRCPVGAWGN` , value?
0.692

Checklist item: protein stability index tested on Saccharomyces cerevisiae, entry `DQRLKKKTVQMK` , value?
0.778

Checklist item: protein stability index tested on Saccharomyces cerevisiae, entry `QRGEGTSQGILT` , value?
0.807

Checklist item: protein stability index tested on Saccharomyces cerevisiae, entry `VASKAGVLFGIR` , value?
0.673

Checklist item: protein stability index tested on Saccharomyces cerevisiae, entry `PPWLPAPFPLPD` , value?
0.695

Checklist item: protein stability index tested on Saccharomyces cerevisiae, entry `GVGAWGGMCGVV` , value?
0.724

Checklist item: protein stability index tested on Saccharomyces cerevisiae, entry `HPPHLSTPPYPP` , value?
0.722

Checklist item: protein stability index tested on Saccharomyces cerevisiae, entry `SCLSYRTRLLAF` , value?
0.49

Checklist item: protein stability index tested on Saccharomyces cerevisiae, entry `PPPPPPYHPTPP` , value?
0.668

Checklist item: protein stability index tested on Saccharomyces cerevisiae, entry `GGGGSTIGVYVL` , value?
0.686

Checklist item: protein stability index tested on Saccharomyces cerevisiae, entry `SICLLSAALPPP` , value?
0.708

Checklist item: protein stability index tested on Saccharomyces cerevisiae, entry `PPRRPSFAPPHL` , value?
0.704

Checklist item: protein stability index tested on Saccharomyces cerevisiae, entry `KVEQLPAREAPC` , value?
0.656

Checklist item: protein stability index tested on Saccharomyces cerevisiae, entry `PDCVLSDENDAG` , value?
0.658

Checklist item: protein stability index tested on Saccharomyces cerevisiae, entry `GFVQGNNGFLMK` , value?
0.682

Checklist item: protein stability index tested on Saccharomyces cerevisiae, entry `SDDPPLSLVISL` , value?
0.754

Checklist item: protein stability index tested on Saccharomyces cerevisiae, entry `GGSDQLGDSVAG` , value?
0.647

Checklist item: protein stability index tested on Saccharomyces cerevisiae, entry `RGGSVGRGRLCL` , value?
0.643

Checklist item: protein stability index tested on Saccharomyces cerevisiae, entry `FRLLHLPALSCP` , value?
0.565

Checklist item: protein stability index tested on Saccharomyces cerevisiae, entry `YISEKKKIEERK` , value?
0.69

Checklist item: protein stability index tested on Saccharomyces cerevisiae, entry `FVCRQSGIWHLR` , value?
0.686

Checklist item: protein stability index tested on Saccharomyces cerevisiae, entry `WPYDRHTRHRET` , value?
0.767

Checklist item: protein stability index tested on Saccharomyces cerevisiae, entry `STKVEIKKRDSR` , value?
0.715

Checklist item: protein stability index tested on Saccharomyces cerevisiae, entry `SKGLPADSQQPF` , value?
0.729

Checklist item: protein stability index tested on Saccharomyces cerevisiae, entry `PHPPLPPPPYLL` , value?
0.667

Checklist item: protein stability index tested on Saccharomyces cerevisiae, entry `AGHGGWREAGGG` , value?
0.685

Checklist item: protein stability index tested on Saccharomyces cerevisiae, entry `LVALTSVLSALF` , value?
0.698

Checklist item: protein stability index tested on Saccharomyces cerevisiae, entry `PHHPPPPLPCVV` , value?
0.632

Checklist item: protein stability index tested on Saccharomyces cerevisiae, entry `NKKKPKRTGKTQ` , value?
0.674

Checklist item: protein stability index tested on Saccharomyces cerevisiae, entry `QKRAREKAPTPD` , value?
0.729

Checklist item: protein stability index tested on Saccharomyces cerevisiae, entry `PPPPPPLSPCPS` , value?
0.704

Checklist item: protein stability index tested on Saccharomyces cerevisiae, entry `GVGWGSSWVGYG` , value?
0.898

Checklist item: protein stability index tested on Saccharomyces cerevisiae, entry `PFPAFPPVTSPP` , value?
0.85

Checklist item: protein stability index tested on Saccharomyces cerevisiae, entry `ARTADPAATPST` , value?
0.687

Checklist item: protein stability index tested on Saccharomyces cerevisiae, entry `PSFLPLWFSRLR` , value?
0.731

Checklist item: protein stability index tested on Saccharomyces cerevisiae, entry `NFKELMEKSKYR` , value?
0.719

Checklist item: protein stability index tested on Saccharomyces cerevisiae, entry `FFLKPVPSLFLC` , value?
0.14

Checklist item: protein stability index tested on Saccharomyces cerevisiae, entry `HNRADKLQTTIE` , value?
0.69

Checklist item: protein stability index tested on Saccharomyces cerevisiae, entry `TDWGLTPRGRVT` , value?
0.777

Checklist item: protein stability index tested on Saccharomyces cerevisiae, entry `EVGGSVGTIVGS` , value?
0.702

Checklist item: protein stability index tested on Saccharomyces cerevisiae, entry `YFPGILFGAIFS` , value?
0.668

====

What protein stability index was measured for each of the following?
- Test system: Saccharomyces cerevisiae
- Protocol description: protein stability index of tFT-peptide fusion (C-terminal peptide) (PSI (0-1 scale)); higher = more stable (slower turnover)
- Condition notes: genetic background: doa10 deletion; temperature: 30 C
Just the number.

So what does the record say about protein stability index for `RVFRRFCCVISM` ?
0.437

So what does the record say about protein stability index for `RGLANLIVIVSS` ?
0.186

So what does the record say about protein stability index for `APLFPPPPARSL` ?
0.692

So what does the record say about protein stability index for `YFLFLRLVFLFF` ?
0.186

So what does the record say about protein stability index for `ETQKEKRENAKP` ?
0.649

So what does the record say about protein stability index for `SSVLWVMFVFFY` ?
0.264

So what does the record say about protein stability index for `CTFFCICVFFLL` ?
0.267

So what does the record say about protein stability index for `LLCSLGFRFSLF` ?
0.289

So what does the record say about protein stability index for `RRLRPQTVAFLS` ?
0.159

So what does the record say about protein stability index for `VVGLSLLFSGGV` ?
0.662

So what does the record say about protein stability index for `IVRLGRWLGLSC` ?
0.215

So what does the record say about protein stability index for `GLLLVWAALGFV` ?
0.221

So what does the record say about protein stability index for `RSIAFLLGQFLS` ?
0.372

So what does the record say about protein stability index for `CMIACYALLRLL` ?
0.0799

So what does the record say about protein stability index for `VSLSWFSCCFVG` ?
0.376

So what does the record say about protein stability index for `FRFSCLFSLFLS` ?
0.169

So what does the record say about protein stability index for `FYSLYLSLVCFN` ?
0.161

So what does the record say about protein stability index for `IVFFVLFRFWRF` ?
0.318

So what does the record say about protein stability index for `LFTSGNSLVLVH` ?
0.202

So what does the record say about protein stability index for `SCLSYRTRLLAF` ?
0.406

So what does the record say about protein stability index for `FCVVFFLSLVFL` ?
0.423

So what does the record say about protein stability index for `WFFPVSPPVMAS` ?
0.175

So what does the record say about protein stability index for `DSGMLDFLLMAW` ?
0.421

So what does the record say about protein stability index for `HVPPVFQASLSP` ?
0.662

So what does the record say about protein stability index for `VFKLGWVLCVLL` ?
0.152

So what does the record say about protein stability index for `HSRALLPYLSYH` ?
0.408

So what does the record say about protein stability index for `LFSTRRWISVCA` ?
0.0486

So what does the record say about protein stability index for `RFCLPLRLPVTT` ?
0.439

So what does the record say about protein stability index for `FLLEVFVLGRTL` ?
0.402

So what does the record say about protein stability index for `SFLCGCVVCWLW` ?
0.4

So what does the record say about protein stability index for `GRLDHWNKHKYI` ?
0.104

So what does the record say about protein stability index for `FGVSLFLPLSVV` ?
0.281

So what does the record say about protein stability index for `SVLSFGVFCLVG` ?
0.418

So what does the record say about protein stability index for `GGSWVRCLRTMG` ?
0.17

So what does the record say about protein stability index for `SFLVRFVYFFAL` ?
0.229

So what does the record say about protein stability index for `FWLFAFVIRKHI` ?
0.101

So what does the record say about protein stability index for `LFSCTQLLPITA` ?
0.141

So what does the record say about protein stability index for `ACFLFPSHLLIS` ?
0.165

So what does the record say about protein stability index for `AGLTLLWPLCLL` ?
0.591

So what does the record say about protein stability index for `PFPTPPPIPRSP` ?
0.706

So what does the record say about protein stability index for `RSKLGVLVILWF` ?
0.243

So what does the record say about protein stability index for `LFLLSHYALCFY` ?
0.333

So what does the record say about protein stability index for `ISFQFFVCLCAR` ?
0.145

So what does the record say about protein stability index for `VLVCYFCRYISH` ?
0.365

So what does the record say about protein stability index for `GVCSFFVCVFFV` ?
0.162

So what does the record say about protein stability index for `IFHWLYLLIALI` ?
0.27

So what does the record say about protein stability index for `LCGIFTFRLSLL` ?
0.245

So what does the record say about protein stability index for `FLLFSFFFFFFF` ?
0.489

So what does the record say about protein stability index for `RWALPALWAYAA` ?
0.0884

So what does the record say about protein stability index for `FVLLSVCFFGCL` ?
0.301

So what does the record say about protein stability index for `VYCCVRSLRVAI` ?
0.395

So what does the record say about protein stability index for `SLCSRLVVVAWF` ?
0.374

So what does the record say about protein stability index for `AGVRCPLFWLVC` ?
0.131

So what does the record say about protein stability index for `SQSNQSIIRKNV` ?
0.296

So what does the record say about protein stability index for `ECLRLTTKKKIN` ?
0.133

So what does the record say about protein stability index for `VGRANLSVIRKV` ?
0.243

So what does the record say about protein stability index for `CKRWGVVSYVFV` ?
0.418

So what does the record say about protein stability index for `VTFWISLVYVLV` ?
0.148

So what does the record say about protein stability index for `PVSEPCAWRIIA` ?
0.0726
